Would you mind telling me the reported Ki of each entry?
Target: opioid receptor delta (Homo sapiens)
Construct: expressed in transfected cells
Sequence (P41143 whole entry): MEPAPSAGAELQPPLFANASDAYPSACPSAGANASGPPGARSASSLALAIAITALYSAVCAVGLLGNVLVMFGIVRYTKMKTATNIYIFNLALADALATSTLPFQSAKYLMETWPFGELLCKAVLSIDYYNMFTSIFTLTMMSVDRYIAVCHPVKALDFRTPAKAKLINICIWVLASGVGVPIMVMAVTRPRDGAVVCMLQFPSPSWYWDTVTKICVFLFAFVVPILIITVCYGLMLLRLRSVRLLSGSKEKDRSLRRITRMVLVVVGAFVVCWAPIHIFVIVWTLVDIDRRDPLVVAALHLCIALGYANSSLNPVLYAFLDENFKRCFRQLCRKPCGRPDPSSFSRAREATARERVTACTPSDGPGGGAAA
Experiment: GTPγ[35S] binding assay, antagonism of BW-373U86
Type: biochemical
Conditions: read-out: Delta functional Ki (GTPγ[35S] binding)
Kindly provide the numeric value in µM only, without the unit symbol.

Ask: Read the entry Cc1cc(-c2ncn[nH]2)ccc1-c1ccc(CNCCC(C)C)cc1F and write its reported Ki.
Result: 0.0282

Ask: Return value of Ki for input CC(C)CCNCc1ccc(-c2cccc(-c3nnc[nH]3)c2)c(F)c1.Cl [E7-02, hydrochloride salt] , no commentary.
Result: 1.4

Ask: Identify the reported Ki for the following entry. Cc1cc(C(N)=O)ccc1-c1ccc(CN[C@@H](C)c2ccccc2)cc1
Result: 0.0222

Ask: Find the measured Ki of CC(C)CCNCc1ccc(-c2cc(-c3ncn[nH]3)ccc2F)c(F)c1 and report it.
Result: 0.0125

Ask: State its Ki for this compound: Cc1cc(C(N)=O)ccc1-c1ccc(CNCc2cccnc2)cc1
Result: 0.0106

###

Target: opioid receptor kappa (Homo sapiens, UniProt P41145)
Construct: expressed in transfected cells
Sequence (P41145 whole entry): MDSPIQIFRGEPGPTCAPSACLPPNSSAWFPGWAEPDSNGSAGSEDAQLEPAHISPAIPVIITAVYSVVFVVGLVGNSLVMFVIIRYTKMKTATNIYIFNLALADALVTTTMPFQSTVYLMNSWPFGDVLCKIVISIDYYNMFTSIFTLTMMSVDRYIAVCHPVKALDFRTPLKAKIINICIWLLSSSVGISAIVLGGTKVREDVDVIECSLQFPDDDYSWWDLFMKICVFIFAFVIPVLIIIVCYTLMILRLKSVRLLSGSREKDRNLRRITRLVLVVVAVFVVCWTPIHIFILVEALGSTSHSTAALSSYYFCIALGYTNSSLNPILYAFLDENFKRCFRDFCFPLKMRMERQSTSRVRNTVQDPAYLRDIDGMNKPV
Assay: GTPγ[35S] binding assay, antagonism of dynorphin-A
Assay type: biochemical
Details: read-out: Kappa functional (GTPγ[35S] binding Ki)
pKi: −log10 of the molar value.
Assign y whenever pKi does not fall below 8; assign n whenever it does.

Ask: Decide: pKi of Cc1cc(C(N)=O)ccc1-c1ccc(CNC2Cc3ccccc3C2)c(F)c1 [1B-10] >= 8?
Result: y

Ask: Hi team, for Cc1cc(C(N)=O)ccc1-c1ccc(CNCC2Cc3ccccc3O2)cc1 (stereo not shown) [4B-31] , is the recorded pKi at or above 8?
Result: y

Ask: Record Cc1cc(C(N)=O)cc(C)c1-c1ccc(CNCCC(C)C)cc1 [4B-14] ; criterion: pKi no lower than 8. Met?
Result: n

Ask: Could you verify whether the entry Cc1cc(C(N)=O)ccc1-c1ccc(CNCCC2CCOCC2)cc1 [4B-05] shows pKi of no less than 8?
Result: y

Ask: For this compound, is measured pKi 8 or higher? CC(C)CCNCc1ccc(-c2ccc(C(N)=O)cc2C(F)(F)F)cc1 [4B-02]
Result: n

###

Molecular target: opioid receptor kappa (Homo sapiens)
Construct: expressed in transfected cells
Assay: GTPγ[35S] binding assay, antagonism of dynorphin-A
Format: biochemical
Details: read-out: Kappa functional (GTPγ[35S] binding Ki)
What pKi was measured for each of the following?
Would you please state pKi, meaning minus log10 of the concentration in mol/L, as a bare number?

Ask: Item NC(=O)c1cccc(-c2ccc(CNCCC3CCCCO3)cc2Cl)c1 (stereo not drawn) : provide pKi
Result: 7.96

Ask: Give a short answer stating reported pKi for NC(=O)c1cccc(-c2ccc(CNC3CCc4ccccc43)cc2Cl)c1 (stereo not drawn) .
Result: 8.11

Ask: Specify reported pKi for the compound shown: Cc1cc(C(N)=O)ccc1-c1cc(F)c(CNCCC(C)C)c(F)c1.Cl [E1-01, hydrochloride salt]
Result: 8.58

Ask: Determine from records and report pKi for CC(C)CCNCc1ccc(-c2ccc(C(N)=O)cc2)cc1
Result: 7.05

Ask: Identify the reported pKi for the following entry. Cc1cc(C(N)=O)ccc1-c1ccc(CNCCOc2ccccc2)cc1
Result: 8.12

Ask: Quick one: give measured pKi for Cc1cc(C(N)=O)ccc1-c1ccc(CNCc2ccccc2F)cc1
Result: 8.48

Ask: # return recorded pKi for input NC(=O)c1ccc(-c2ccc(CNC3Cc4ccccc4C3)cn2)c(Cl)c1
Result: 8.38

Ask: Identify the reported pKi for the following entry. Cc1cc(C(N)=O)ccc1-c1ccc(CNCCc2ccccc2)cc1
Result: 8.21

Ask: Identify measured pKi corresponding to Cc1cc(C(N)=O)ccc1-c1ccc(CNC2CCc3ccccc32)cc1 (stereo not drawn)
Result: 9.06

Ask: # return recorded pKi for entry Cc1cc(C(N)=O)ccc1-c1ccc(CNC2Cc3ccccc3C2)nc1
Result: 8.73

Ask: Supply measured pKi of Cc1cc(C(N)=O)ccc1-c1ccc(CNC(C)(C)c2cccc(Cl)c2)cc1 in your reply.
Result: 8.21

Ask: Respond only with pKi recorded for NC(=O)c1cc(-c2ccc(CNC3Cc4ccccc4C3)cc2)ccc1F
Result: 7.22

Ask: Look up and report measured pKi for this entry: Cc1cc(CNCCC(C)C)ccc1-c1ccc(C(N)=O)cc1C.Cl [E2-01, hydrochloride salt]
Result: 8.69

Ask: Identify measured pKi corresponding to Cc1cc(C(N)=O)ccc1-c1ccc(CNCCOC(C)C)cc1
Result: 8.07

Ask: // Input: Cc1cc(C(N)=O)ccc1-c1ccc(CNCc2cccc(F)c2)cc1 . Output its pKi only.
Result: 8.92
